Hello, the source for this data is patent US9139577B2, in case you need it.

pIC50: −log10 of the molar value.
# pIC50 measurements, system: MNK2a (Homo sapiens (Human))
# Sequence (Q9HBH9 whole entry): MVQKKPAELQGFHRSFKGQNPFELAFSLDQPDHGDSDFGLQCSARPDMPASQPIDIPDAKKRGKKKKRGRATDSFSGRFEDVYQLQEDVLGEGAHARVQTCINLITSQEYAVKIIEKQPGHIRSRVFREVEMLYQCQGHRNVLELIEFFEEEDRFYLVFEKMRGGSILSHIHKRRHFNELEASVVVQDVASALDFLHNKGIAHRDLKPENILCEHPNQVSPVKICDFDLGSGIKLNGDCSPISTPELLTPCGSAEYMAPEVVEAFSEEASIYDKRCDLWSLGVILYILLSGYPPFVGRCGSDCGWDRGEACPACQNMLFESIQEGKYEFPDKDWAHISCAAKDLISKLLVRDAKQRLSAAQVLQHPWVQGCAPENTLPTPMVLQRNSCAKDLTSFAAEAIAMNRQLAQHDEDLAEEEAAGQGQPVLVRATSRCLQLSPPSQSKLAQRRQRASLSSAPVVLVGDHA
endpoint-label: pIC50

>>> assay_result("Cc1cc([C@@H](C)Oc2ncccc2Nc2ncnc3cc(N=S(C)(C)=O)cc(Cl)c23)on1")
9.00
>>> assay_result("Cc1cc(N=S2(=O)CCCC2)cc2ncnc(Nc3ccc(F)cc3O[C@H](C)C(=O)NCC(C)(C)O)c12")
8.52
>>> assay_result("CCOC(=O)[C@@H](C)Oc1cc(F)ccc1Nc1ncnc2cc(N=S3(=O)CCCC3)cc(C)c12")
7.64
>>> assay_result("C[C@H](NC(=O)[C@@H](C)Oc1cc(F)ccc1Nc1ncnc2cc(N=S(C)(C)=O)cc(Cl)c12)C(F)(F)F")
8.70
>>> assay_result("Cc1cc(N=S(C)(C)=O)cc2ncnc(Nc3ccc(F)cc3OCC#N)c12")
9.00
>>> assay_result("Cc1cc(N=S2(=O)CCC2)cc2ncnc(Nc3ccc(Cl)cc3O[C@H](C)C(=O)NCC(F)(F)F)c12")
9.00
>>> assay_result("COc1cc(N=S2(=O)CCC2)cc2ncnc(Nc3ccc(F)cc3O[C@H](C)C(=O)N[C@@H](C)C(F)(F)F)c12")
8.40
>>> assay_result("C[C@@H](Oc1cc(F)ccc1Nc1ncnc2cc(N=S(C)(C)=O)cc(C(F)(F)F)c12)C(=O)NCC(F)(F)F")
8.70
>>> assay_result("Cc1cc(N=S(C)(C)=O)cc2ncnc(Nc3ccc(F)cc3O[C@H](C)C(=O)N3CCCC3)c12")
7.70
>>> assay_result("Cc1cc(N=S(C)(C)=O)cc2ncnc(Nc3ccc(F)cc3OC(C)C(C)(C)C#N)c12 (centres unmarked)")
7.96
>>> assay_result("Cc1cc(N=S2(=O)CC3(COC3)C2)cc2ncnc(Nc3ccc(Cl)cc3O[C@H](C)C(=O)N[C@@H](C)C(F)(F)F)c12")
9.00
>>> assay_result("COc1cc(N=S(C)(=O)C2CC2)cc2ncnc(Nc3ccc(F)cc3O[C@H](C)C(=O)NCC(F)(F)F)c12 (some centres unmarked)")
8.40
>>> assay_result("Cc1cc(N=S2(=O)CCCC2)cc2ncnc(Nc3ccc(F)cc3OC(CF)CF)c12")
8.70
>>> assay_result("C[C@@H](C#N)NC(=O)[C@@H](C)Oc1cc(Cl)ccc1Nc1ncnc2cc(N=S3(=O)CCC3)cc(F)c12")
8.70
